tested on: Staphylococcus aureus; assay: Antimicrobial activity against Staphylococcus aureus assessed as inhibition zone at 200 ug/disk after 24 hrs by disc-diffusion method; type: functional; settings: read-out: IZ
Record form. Attribute: zone of inhibition at 200 µg/disc. Fill in for each entry.
Provide the reading as a plain figure in mm.

**Query** Kindly indicate its recorded zone of inhibition at 200 µg/disc. Item: `Cc1ccc2nc(Sc3sc(N)nc3C)n(-c3ccccc3)c(=O)c2c1`
**Result** 8

**Query** Kindly indicate its recorded zone of inhibition at 200 µg/disc. Item: `Cc1ccc2nc(Sc3nnc(N)s3)n(Cc3ccccc3)c(=O)c2c1`
**Result** 8

**Query** Kindly indicate its recorded zone of inhibition at 200 µg/disc. Item: `COc1ccc(-n2c(Sc3sc(N)nc3C)nc3cc(OC)c(OC)cc3c2=O)cc1`
**Result** 8

**Query** Kindly indicate its recorded zone of inhibition at 200 µg/disc. Item: `Cc1ccc(-n2c(Sc3sc(N)nc3C)nc3ccc(Cl)cc3c2=O)cc1`
**Result** 18

**Query** Kindly indicate its recorded zone of inhibition at 200 µg/disc. Item: CC(=O)NS(=O)(=O)c1ccc(N)cc1 [SULFACETAMIDE]
**Result** 20

**Query** Kindly indicate its recorded zone of inhibition at 200 µg/disc. Item: `COc1cc2nc(Sc3nnc(N)s3)n(-c3ccc(C)cc3)c(=O)c2cc1OC`
**Result** 14

**Query** Kindly indicate its recorded zone of inhibition at 200 µg/disc. Item: `COc1ccc(-n2c(Sc3nnc(N)s3)nc3ccc(C)cc3c2=O)cc1`
**Result** 8

**Query** Kindly indicate its recorded zone of inhibition at 200 µg/disc. Item: `COc1cc2nc(Sc3nnc(N)s3)n(-c3ccccc3)c(=O)c2cc1OC`
**Result** 8

**Query** Kindly indicate its recorded zone of inhibition at 200 µg/disc. Item: `Cc1ccc(-n2c(Sc3sc(N)nc3C)nc3ccc(C)cc3c2=O)cc1`
**Result** 8

**Query** Kindly indicate its recorded zone of inhibition at 200 µg/disc. Item: `Cc1nc(N)sc1Sc1nc2ccc(Cl)cc2c(=O)n1-c1ccc(Oc2ccccc2)cc1`
**Result** 8

**Query** Kindly indicate its recorded zone of inhibition at 200 µg/disc. Item: `COc1cc2nc(Sc3sc(N)nc3C)n(Cc3ccccc3)c(=O)c2cc1OC`
**Result** 20

**Query** Kindly indicate its recorded zone of inhibition at 200 µg/disc. Item: `Cc1ccc(-n2c(Sc3nnc(N)s3)nc3ccc(C)cc3c2=O)cc1`
**Result** 8

**Query** Kindly indicate its recorded zone of inhibition at 200 µg/disc. Item: `COc1cc2nc(Sc3sc(N)nc3C)n(-c3ccc(Cl)cc3)c(=O)c2cc1OC`
**Result** 18

**Query** Kindly indicate its recorded zone of inhibition at 200 µg/disc. Item: `Cc1ccc2nc(Sc3nnc(N)s3)n(-c3ccccc3)c(=O)c2c1`
**Result** 8

**Query** Kindly indicate its recorded zone of inhibition at 200 µg/disc. Item: `Cc1ccc2nc(Sc3sc(N)nc3C)n(-c3ccc(Cl)cc3)c(=O)c2c1`
**Result** 8

**Query** Kindly indicate its recorded zone of inhibition at 200 µg/disc. Item: `Cc1ccc2nc(Sc3sc(N)nc3C)n(-c3ccc(Oc4ccccc4)cc3)c(=O)c2c1`
**Result** 26

**Query** Kindly indicate its recorded zone of inhibition at 200 µg/disc. Item: `COc1ccc(-n2c(Sc3nnc(N)s3)nc3cc(OC)c(OC)cc3c2=O)cc1`
**Result** 8

**Query** Kindly indicate its recorded zone of inhibition at 200 µg/disc. Item: `COc1cc2nc(Sc3sc(N)nc3C)n(-c3ccc(C)cc3)c(=O)c2cc1OC`
**Result** 8

**Query** Kindly indicate its recorded zone of inhibition at 200 µg/disc. Item: `Nc1nnc(Sc2nc3ccc(Cl)cc3c(=O)n2-c2ccc(Cl)cc2)s1`
**Result** 18

**Query** Kindly indicate its recorded zone of inhibition at 200 µg/disc. Item: `Cc1nc(N)sc1Sc1nc2ccc(Cl)cc2c(=O)n1-c1ccc(Cl)cc1`
**Result** 8

**Query** Kindly indicate its recorded zone of inhibition at 200 µg/disc. Item: `COc1ccc(-n2c(Sc3sc(N)nc3C)nc3ccc(C)cc3c2=O)cc1`
**Result** 8

====

tested on: CAKI-1; assay: Growth inhibition of human CAKI-1 cells at 10 uM after 48 hrs; type: functional; details: CAKI-1, 48 h, read-out: GI
Experimental readout: inhibition of growth at 10 µM (%)
Provide the reading as a plain figure in %.

**Query** Kindly indicate its recorded inhibition of growth at 10 µM. Item: `COc1cc2nc(Sc3nnc(N)s3)n(-c3ccc(Cl)cc3)c(=O)c2cc1OC`
**Result** 12.6

**Query** Kindly indicate its recorded inhibition of growth at 10 µM. Item: `COc1ccc(-n2c(Sc3sc(N)nc3C)nc3ccc(C)cc3c2=O)cc1`
**Result** 11.5

**Query** Kindly indicate its recorded inhibition of growth at 10 µM. Item: `Cc1ccc(-n2c(Sc3nnc(N)s3)nc3ccc(C)cc3c2=O)cc1`
**Result** 10.4

**Query** Kindly indicate its recorded inhibition of growth at 10 µM. Item: `COc1ccc(-n2c(Sc3sc(N)nc3C)nc3ccc(Cl)cc3c2=O)cc1`
**Result** 13.1

**Query** Kindly indicate its recorded inhibition of growth at 10 µM. Item: `Cc1nc(N)sc1Sc1nc2ccc(Cl)cc2c(=O)n1-c1ccc(Oc2ccccc2)cc1`
**Result** 26.5

**Query** Kindly indicate its recorded inhibition of growth at 10 µM. Item: `Cc1ccc2nc(Sc3sc(N)nc3C)n(-c3ccc(Cl)cc3)c(=O)c2c1`
**Result** 11.2

**Query** Kindly indicate its recorded inhibition of growth at 10 µM. Item: `Cc1ccc2nc(Sc3sc(N)nc3C)n(Cc3ccccc3)c(=O)c2c1`
**Result** 13.7

====

system: SF-268; test: Growth inhibition of human SF268 cells at 10 uM after 48 hrs; assay type: functional
Active and inactive are the calls of the source. The rule behind the calls is not given here.
Experimental readout: growth inhibition (GI)

Illustrative cases are given below, each with its answer.
>>> result("COc1cc2nc(Sc3sc(N)nc3C)n(-c3ccc(Cl)cc3)c(=O)c2cc1OC")
"inactive"
>>> result("COc1ccc(-n2c(Sc3sc(N)nc3C)nc3cc(OC)c(OC)cc3c2=O)cc1")
"inactive"
>>> result("COc1cc2nc(Sc3sc(N)nc3C)n(Cc3ccccc3)c(=O)c2cc1OC")
"inactive"
>>> result("Cc1ccc(-n2c(Sc3sc(N)nc3C)nc3ccc(C)cc3c2=O)cc1")
"inactive"

**Query** Kindly indicate its recorded growth inhibition (GI). Item: `Cc1ccc2nc(Sc3nnc(N)s3)n(Cc3ccccc3)c(=O)c2c1`
**Result** inactive

====

test system: SK-MEL-5; assay: Growth inhibition of human SK-MEL-5 cells at 10 uM after 48 hrs; type: functional; conditions: SK-MEL-5, 48 h, read-out: GI
Record form. Attribute: inhibition of growth at 10 µM. Fill in for each entry.
Provide the reading as a plain figure in %.

**Query** Kindly indicate its recorded inhibition of growth at 10 µM. Item: `COc1cc2nc(Sc3nnc(N)s3)n(-c3ccc(Oc4ccccc4)cc3)c(=O)c2cc1OC`
**Result** 28.2

**Query** Kindly indicate its recorded inhibition of growth at 10 µM. Item: `Cc1ccc2nc(Sc3sc(N)nc3C)n(Cc3ccccc3)c(=O)c2c1`
**Result** 25.8

**Query** Kindly indicate its recorded inhibition of growth at 10 µM. Item: `Nc1nnc(Sc2nc3ccc(Cl)cc3c(=O)n2-c2ccc(Cl)cc2)s1`
**Result** 10.9

**Query** Kindly indicate its recorded inhibition of growth at 10 µM. Item: `Cc1nc(N)sc1Sc1nc2ccc(Cl)cc2c(=O)n1-c1ccc(Oc2ccccc2)cc1`
**Result** 23.9

**Query** Kindly indicate its recorded inhibition of growth at 10 µM. Item: `Cc1ccc2nc(Sc3sc(N)nc3C)n(-c3ccc(Cl)cc3)c(=O)c2c1`
**Result** 16.3

**Query** Kindly indicate its recorded inhibition of growth at 10 µM. Item: `COc1cc2nc(Sc3sc(N)nc3C)n(-c3ccc(Oc4ccccc4)cc3)c(=O)c2cc1OC`
**Result** 23.2

**Query** Kindly indicate its recorded inhibition of growth at 10 µM. Item: `COc1ccc(-n2c(Sc3sc(N)nc3C)nc3ccc(C)cc3c2=O)cc1`
**Result** 15.7

====

experiment: Growth inhibition of human PC3 cells at 10 uM after 48 hrs; format: functional; conditions: PC-3, 48 h, read-out: GI
Experimental readout: inhibition of growth at 10 µM (%)
Provide the reading as a plain figure in %.

**Query** Kindly indicate its recorded inhibition of growth at 10 µM. Item: `COc1cc2nc(Sc3nnc(N)s3)n(-c3ccc(Cl)cc3)c(=O)c2cc1OC`
**Result** 11.2

**Query** Kindly indicate its recorded inhibition of growth at 10 µM. Item: `Cc1nc(N)sc1Sc1nc2ccc(Cl)cc2c(=O)n1Cc1ccccc1`
**Result** 15.8

**Query** Kindly indicate its recorded inhibition of growth at 10 µM. Item: `Cc1ccc2nc(Sc3sc(N)nc3C)n(Cc3ccccc3)c(=O)c2c1`
**Result** 34.5

**Query** Kindly indicate its recorded inhibition of growth at 10 µM. Item: `COc1ccc(-n2c(Sc3sc(N)nc3C)nc3ccc(C)cc3c2=O)cc1`
**Result** 15.9

**Query** Kindly indicate its recorded inhibition of growth at 10 µM. Item: `COc1cc2nc(Sc3nnc(N)s3)n(-c3ccccc3)c(=O)c2cc1OC`
**Result** 10.9

**Query** Kindly indicate its recorded inhibition of growth at 10 µM. Item: `Cc1ccc2nc(Sc3sc(N)nc3C)n(-c3ccc(Cl)cc3)c(=O)c2c1`
**Result** 28.6

**Query** Kindly indicate its recorded inhibition of growth at 10 µM. Item: `COc1ccc(-n2c(Sc3sc(N)nc3C)nc3ccc(Cl)cc3c2=O)cc1`
**Result** 14.7

**Query** Kindly indicate its recorded inhibition of growth at 10 µM. Item: `COc1cc2nc(Sc3sc(N)nc3C)n(-c3ccc(Oc4ccccc4)cc3)c(=O)c2cc1OC`
**Result** 34.9

**Query** Kindly indicate its recorded inhibition of growth at 10 µM. Item: `Nc1nnc(Sc2nc3ccc(Cl)cc3c(=O)n2-c2ccc(Cl)cc2)s1`
**Result** 14.1

**Query** Kindly indicate its recorded inhibition of growth at 10 µM. Item: `Nc1nnc(Sc2nc3ccc(Cl)cc3c(=O)n2Cc2ccccc2)s1`
**Result** 12.8
